# assayed-target: cKIT (Homo sapiens)
# Construct: The kinase domain of cKIT was assayed in 50 mM Hepes; purchased Upstate 14-559
# test-description: Inhibition of cKIT kinase in an in vitro biochemical assay (alphascreen)
# experimental-setup: tested at about 1 μM
Below, each entry is listed with its recorded inhibition at 1 µM.
# number only, unit % dropped from output

Output reported inhibition at 1 µM of the compound CNC(=O)c1cc(Oc2ccc3nc(N[C@H](CO)C4CCCCC4)ncc3c2)ccn1 [Cmpd 18] on cKIT (Homo sapiens).
30

Consider the compound CNC(=O)c1cc(Oc2ccc3nc(NCc4ccc5c(c4)OCCO5)ncc3c2)ccn1 [Example 43] tested on cKIT (Homo sapiens); state its inhibition at 1 µM.
24

Fill in inhibition at 1 µM for CCOc1ccccc1Nc1ncc2cc(Oc3ccnc(C(=O)NC)c3)ccc2n1 [Example 45] tested with cKIT (Homo sapiens).
38

Fill: inhibition at 1 µM (cKIT (Homo sapiens)) for this compound CNC(=O)c1cc(Oc2ccc3nc(N[C@@H](C)C4CCCCC4)ncc3c2)ccn1 [Cmpd 16]
58

Give cKIT (Homo sapiens) inhibition at 1 µM for the following compound: OC(c1ccncc1)c1ccc2nc(NCC3CCCCC3)sc2c1 (stereo not drawn) [Example 76]
49

Report measured inhibition at 1 µM on cKIT (Homo sapiens); entry: CNC(=O)c1cc(Sc2ccc3nc(NCC4CCCCC4)sc3c2)ccn1 [Example 78]
13

Quote inhibition at 1 µM with test system cKIT (Homo sapiens) for CNC(=O)c1cc(Oc2ccc3nc(N[C@@H]4CCCC[C@H]4O)ncc3c2)ccn1 [Example 11]
23

Jot down inhibition at 1 µM (cKIT (Homo sapiens)) of Nc1cc(Oc2ccc3nc(Nc4ccccc4N4CCOCC4)ncc3c2)ccn1 [Example 29] .
9

Identify measured inhibition at 1 µM obtained with cKIT (Homo sapiens) for CNC(=O)c1cc(Oc2ccc3nc(NC(=O)NC4CCCCC4)ncc3c2)ccn1 [Example 60] .
17

Give the observed inhibition at 1 µM of CNC(=O)c1cc(Oc2ccc3nc(N[C@H](CO)Cc4ccccc4)ncc3c2)ccn1 [Example 13] for cKIT (Homo sapiens).
28

For cKIT (Homo sapiens), give the measured inhibition at 1 µM of the entry CNC(=O)c1cc(Oc2ccc3nc(N[C@H](C)C4CCCCC4)ncc3c2)ccn1 [Example 15]
50

* * *

# assayed-target: PDGFRb (Homo sapiens, UniProt P09619)
# Construct: The kinase domain of PDGFRβ was assayed in 50 mM Hepes; purchased Invitrogen P3082
# Sequence (P09619 600-962 limits assumed): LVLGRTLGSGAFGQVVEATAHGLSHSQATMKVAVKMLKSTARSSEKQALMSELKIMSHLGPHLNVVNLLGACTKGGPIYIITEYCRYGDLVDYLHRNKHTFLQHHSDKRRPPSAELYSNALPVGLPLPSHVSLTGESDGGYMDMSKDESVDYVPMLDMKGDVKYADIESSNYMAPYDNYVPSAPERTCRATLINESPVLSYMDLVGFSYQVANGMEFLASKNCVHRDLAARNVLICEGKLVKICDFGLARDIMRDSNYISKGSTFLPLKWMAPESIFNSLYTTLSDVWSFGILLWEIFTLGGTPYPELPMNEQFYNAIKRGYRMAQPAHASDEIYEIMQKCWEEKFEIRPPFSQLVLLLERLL
# test-description: Inhibition of PDGFRb kinase in an in vitro biochemical assay (alphascreen)
# experimental-setup: tested at about 1 μM; read-out: PDGFR % inhibition at 1 μM
measurement-name: inhibition at 1 µM (%)
Provide only the numeric value, understood in %.

{"structure-string": "CNC(=O)c1cc(Oc2ccc3nc(N[C@@H]4CCCC[C@H]4O)[nH]c3c2)ccn1", "reading": 30}

Give the reported value of inhibition at 1 µM for this record: "CNC(=O)c1cc(Oc2ccc3nc(N[C@@H]4CCCC[C@H]4O)ncc3c2)ccn1"
21

* * *

# assayed-target: PDGFRb (Homo sapiens, UniProt P09619)
# Construct: The kinase domain of PDGFRβ was assayed in 50 mM Hepes; purchased Invitrogen P3082
# test-description: Inhibition of PDGFRb kinase in an in vitro biochemical assay (alphascreen)
# experimental-setup: tested at about 1 μM; read-out: PDGFR % inhibition at 1 μM
measurement-name: inhibition at 1 µM (%)
Return type: number; implicit unit %.

{"compound": "CNC(=O)c1cc(Oc2ccc3sc(N[C@@H]4CCCC[C@H]4O)nc3c2)ccn1", "reading": 71}
{"compound": "CNC(=O)c1cc(Oc2ccc3nc(NC(C)c4nccs4)ncc3c2)ccn1 (centres unmarked)", "reading": 15}
{"compound": "CNC(=O)c1cc(Oc2ccc3nc(NCc4ccccc4N4CCOCC4)ncc3c2)ccn1", "reading": 92}
{"compound": "CCCNc1ncc2cc(Oc3ccnc(C(=O)NC)c3)ccc2n1", "reading": 9}

# next compound below
Quick one: give measured inhibition at 1 µM for "CC[C@H](C)[C@@H](CO)Nc1ncc2cc(Oc3ccnc(C(=O)NC)c3)ccc2n1"
15

* * *

# assayed-target: cytoplasmic domain of the human CSF-1R (Homo sapiens, UniProt P07333)
# Construct: Recombinant protein corresponding to the cytoplasmic domain of the human CSF-1R; purchased Invitrogen Corporation, Carlsbad, Calif; U.S.A. PV3249
# Sequence (P07333 539-972 limits assumed): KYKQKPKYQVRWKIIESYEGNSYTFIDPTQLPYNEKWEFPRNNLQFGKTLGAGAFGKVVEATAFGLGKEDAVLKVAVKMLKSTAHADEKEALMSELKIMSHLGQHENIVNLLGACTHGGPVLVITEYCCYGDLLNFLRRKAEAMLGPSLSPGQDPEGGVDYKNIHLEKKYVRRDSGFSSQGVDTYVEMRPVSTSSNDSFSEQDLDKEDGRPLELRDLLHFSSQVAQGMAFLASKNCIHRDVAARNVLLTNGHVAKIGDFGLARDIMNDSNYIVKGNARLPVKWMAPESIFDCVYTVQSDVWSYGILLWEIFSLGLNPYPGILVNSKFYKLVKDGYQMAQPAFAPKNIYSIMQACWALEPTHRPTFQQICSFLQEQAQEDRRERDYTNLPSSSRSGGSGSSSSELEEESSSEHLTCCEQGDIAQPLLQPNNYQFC
# test-description: In vitro kinase assay for CSF-1R (AlphaScreen)
# Assay type: biochemical
# experimental-setup: tested at about 1 μM
Reported values of inhibition at 1 µM for individual entries
Field: value (include unit after the number)

Below, 6 molecules whose answers are already recorded.
{"molecule": "CNC(=O)c1cc(Oc2ccc3nc(NC(=O)NC4CCCCC4)ncc3c2)ccn1", "assayed-target": "cytoplasmic domain of the human CSF-1R (Homo sapiens, UniProt P07333)", "inhibition at 1 µM": "97%"}
{"molecule": "CNC(=O)c1cc(Oc2ccc3nc(N[C@@H]4CCCC[C@H]4O)ncc3c2)ccn1", "assayed-target": "cytoplasmic domain of the human CSF-1R (Homo sapiens, UniProt P07333)", "inhibition at 1 µM": "99%"}
{"molecule": "CNC(=O)c1cc(Oc2ccc3nc(NCC4(N5CCOCC5)CCCCC4)ncc3c2)ccn1", "assayed-target": "cytoplasmic domain of the human CSF-1R (Homo sapiens, UniProt P07333)", "inhibition at 1 µM": "99%"}
{"molecule": "CNC(=O)c1cc(Oc2ccc3nc(N[C@@H](C)c4ccccc4)ncc3c2)ccn1", "assayed-target": "cytoplasmic domain of the human CSF-1R (Homo sapiens, UniProt P07333)", "inhibition at 1 µM": "99%"}
{"molecule": "CNC(=O)c1cc(Oc2ccc3nc(Nc4cccc5c4OCCO5)ncc3c2)ccn1", "assayed-target": "cytoplasmic domain of the human CSF-1R (Homo sapiens, UniProt P07333)", "inhibition at 1 µM": "100%"}
{"molecule": "CC[C@H](C)[C@@H](CO)Nc1ncc2cc(Oc3ccnc(C(=O)NC)c3)ccc2n1", "assayed-target": "cytoplasmic domain of the human CSF-1R (Homo sapiens, UniProt P07333)", "inhibition at 1 µM": "99%"}

# return recorded inhibition at 1 µM for input "CNC(=O)c1cc(Oc2ccc3nc(NC(=O)C4CCCCC4)ncc3c2)ccn1"
99%

* * *

# assayed-target: cytoplasmic domain of the human CSF-1R (Homo sapiens)
# Construct: Recombinant protein corresponding to the cytoplasmic domain of the human CSF-1R; purchased Invitrogen Corporation, Carlsbad, Calif; U.S.A. PV3249
# test-description: In vitro kinase assay for CSF-1R (AlphaScreen)
# Type: biochemical
# experimental-setup: tested at about 1 μM
measurement-name: inhibition at 1 µM (%)
Reply numerically in %, unit not repeated.

// below: answered compounds
{"compound": "CN(C)C(=O)c1cc(Oc2ccc3nc(Nc4ccccc4N4CCOCC4)ncc3c2)ccn1 [Example 31]", "reading": 67}
{"compound": "CNC(=O)c1cc(Oc2ccc3nc(NC4CCN(C(=O)OC(C)(C)C)CC4)ncc3c2)ccn1 [Example 57]", "reading": 93}
{"compound": "CNC(=O)c1cc(Oc2ccc3nc(Nc4ccccc4OC)ncc3c2)ccn1 [Example 44]", "reading": 99}

# evaluate next
Report measured inhibition at 1 µM; entry is CNC(=O)c1cc(Oc2ccc3nc(N[C@@H]4CCCC[C@H]4O)ccc3c2)ccn1 [Example 1]
100

* * *

# assayed-target: cKIT (Homo sapiens, UniProt P10721)
# Construct: The kinase domain of cKIT was assayed in 50 mM Hepes; purchased Upstate 14-559
# Sequence (P10721 589-937 limits assumed): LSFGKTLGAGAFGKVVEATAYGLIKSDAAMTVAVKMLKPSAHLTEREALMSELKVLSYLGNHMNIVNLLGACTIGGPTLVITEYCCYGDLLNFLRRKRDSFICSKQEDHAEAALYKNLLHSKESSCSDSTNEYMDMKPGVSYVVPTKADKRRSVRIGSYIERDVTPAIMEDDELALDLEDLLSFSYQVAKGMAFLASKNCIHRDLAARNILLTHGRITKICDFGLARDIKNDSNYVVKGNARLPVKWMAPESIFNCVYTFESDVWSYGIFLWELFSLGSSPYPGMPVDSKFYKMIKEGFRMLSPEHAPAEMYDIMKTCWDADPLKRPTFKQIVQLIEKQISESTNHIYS
# test-description: Inhibition of cKIT kinase in an in vitro biochemical assay (alphascreen)
# experimental-setup: tested at about 1 μM
measurement-name: inhibition at 1 µM (%)
Respond with the bare value in %.

{"structure-string": "CNC(=O)c1cc(Oc2ccc3nc(NCc4cccc5c4OCCO5)ncc3c2)ccn1", "reading": 99}
{"structure-string": "CNC(=O)c1cc(Oc2ccc3nc(NCc4ccccc4N4CCOCC4)ncc3c2)ccn1", "reading": 6}

Alright, here's another compound for you.
State its inhibition at 1 µM for this compound: "CNC(=O)c1cc(Oc2ccc3nc(N[C@@H]4CCCC[C@H]4O)[nH]c3c2)ccn1"
30
